- System: OVCAR-3
- Protocol Description: NCI tumour cell line growth inhibition, 48 h
Activity calls are given as the source filed them. Rule as the data show it: active = GI50 up to about 1.1 µM and inactive = higher.
Could you please pick one outcome from this set? active, inactive

Below, 2 compounds whose answers are already recorded.
compound="Cc1ccc(C)c(NC(=O)/C(=N\\N)C(c2cnc3ccc([N+](=O)[O-])cc3n2)[N+](=O)[O-])c1 (stereo not given)" label_value=inactive
compound="CCCCN(CCCC)CC(C(=O)Nc1ccc([N+](=O)[O-])cc1[N+](=O)[O-])/C(C)=N\\NC(=S)NN (stereo not given)" label_value=inactive

Dear all, I need the recorded test outcome for COC(=O)[C@H](COC(=O)/C=C/c1ccc(OC(C)=O)c(OC(C)=O)c1)NC(=O)/C=C/c1ccc(OC(C)=O)c(OC(C)=O)c1 , thank you. inactive

Dear all, I need the recorded test outcome for Nc1ccc(C2=Nc3ccccc3SC(c3ccccc3O)C2)cc1 (stereo not given) , thank you. inactive

* * *

- Tested on: U-251
- Protocol Description: NCI tumour cell line growth inhibition, 48 h
Active and inactive are the calls of the source. Cut-off read from the data, not from the text of the source: active = GI50 up to about 1.1 µM and inactive = higher.
Could you please pick one outcome from this set? 1 (yes) for active, 0 (no) for inactive

Below, 10 compounds whose answers are already recorded.
compound="COC(=O)C(NC(=O)c1ccccc1)C(c1ccc(Cl)cc1)P(=O)(OC)OC (configuration not stated)" label_value="0 (no)"
compound="O=c1cnn(C2OC(C(O)CO)C(O)C2O)c(=O)[nH]1 (configuration not stated)" label_value="0 (no)"
compound=CCOP(=O)(OCC)/C(C#N)=C\c1ccc(OC(C)=O)cc1 label_value="0 (no)"
compound=C[N+]1(C)C/C(=C\c2ccc(O)cc2)C(=O)/C(=C/c2ccc(O)cc2)C1 label_value="0 (no)"
compound=NCc1ccccc1.O=C(O)NCc1ccccc1 label_value="0 (no)"
compound="COC(=O)C(=O)C(C#N)c1cccc(Cl)c1 (configuration not stated)" label_value="0 (no)"
compound="CCCN1CN(C(C(=O)N[C@@H]2C(=O)N3C2SC(C)(C)C3C(=O)O)c2ccccc2)CSC1=S (some centres not stated)" label_value="0 (no)"
compound=O=C1CCCNn2c(nc3ncccc3c2=O)N1 label_value="0 (no)"
compound=Cc1cc(S(=O)(=O)NC(=C(C#N)C#N)[n+]2ccc(N(C)C)cc2)c([S-])cc1Cl label_value="0 (no)"
compound=Cc1ccc2c(O)cc(-c3cccc(Cl)c3)nc2n1 label_value="1 (yes)"

Dear all, I need the recorded test outcome for CCOC(=O)c1cccc([N+](=O)[O-])c1N , thank you. 0 (no)

Dear all, I need the recorded test outcome for O=C(c1cc(Cl)ccc1Cl)N1CCN(c2cccc(Cl)c2)CC1 , thank you. 0 (no)

Dear all, I need the recorded test outcome for SC1=NC2=C(CSC/C2=C\c2cccc(Br)c2)C(c2cccc(Br)c2)N1 (configuration not stated) , thank you. 0 (no)

Dear all, I need the recorded test outcome for [O-][S+]1c2ccccc2N=C(c2ccc3ccccc3c2)CC1c1ccccc1 (configuration not stated) , thank you. 0 (no)

Dear all, I need the recorded test outcome for CN1C(=O)c2cccc3c([N+](=O)[O-])ccc(c23)C1=O , thank you. 0 (no)

Dear all, I need the recorded test outcome for CC(C)(C)c1cc(C(=O)/C=C/c2ccc3c(c2)CCO3)cc(C(C)(C)C)c1O , thank you. 1 (yes)

* * *

- Test system: M14
- Protocol Description: NCI tumour cell line growth inhibition, 48 h
The source made the active and inactive calls. No stated cut-off is given here; in the data, active = GI50 up to about 1.1 µM and inactive = higher.
Could you please pick one outcome from this set? active, inactive

molecule=Cn1c2ccccc2c(=NNc2ccc(C(=O)O)cc2)c2ccccc21 label_value=inactive
molecule=Cc1ccc(CC(=O)Nc2ccc(NC(=O)CNC(=O)/C=C/c3ccc(-c4ccccc4)cc3)cc2C(=O)c2ccccc2)cc1 label_value=inactive

Then there is this molecule:
Dear all, I need the recorded test outcome for COc1ccc(/N=N/C(=N\c2ccc(Cl)cc2)c2ccc(N(CCC#N)CCC#N)cc2)cc1 , thank you. inactive
